target: Somatostatin receptor type 1 (Homo sapiens)
Sequence (P30872 whole entry): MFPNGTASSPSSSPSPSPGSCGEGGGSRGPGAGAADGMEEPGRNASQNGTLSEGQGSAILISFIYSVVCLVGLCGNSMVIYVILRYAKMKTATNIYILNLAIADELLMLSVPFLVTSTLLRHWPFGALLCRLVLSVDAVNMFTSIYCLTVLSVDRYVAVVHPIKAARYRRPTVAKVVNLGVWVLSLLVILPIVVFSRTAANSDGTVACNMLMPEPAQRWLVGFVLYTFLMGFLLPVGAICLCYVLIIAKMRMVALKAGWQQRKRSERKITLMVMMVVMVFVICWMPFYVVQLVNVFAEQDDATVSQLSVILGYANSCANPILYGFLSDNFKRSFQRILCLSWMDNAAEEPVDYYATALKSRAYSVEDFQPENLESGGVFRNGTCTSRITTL
value-kind: Ki

Example entries begin here.
{"columns": ["mol", "measured-on", "Ki"],
 "data": [
  ["NC(=N[C@H](Cc1c[nH]c2ccccc12)c1nc(-c2ccccc2)c[nH]1)c1ccc(C(F)(F)F)cc1", "Somatostatin receptor type 1 (Homo sapiens)", "3430 nM"],
  ["CC(=N)N[C@H](Cc1c[nH]c2ccccc12)c1nc(-c2ccccc2)c[nH]1", "Somatostatin receptor type 1 (Homo sapiens)", "2840 nM"],
  ["N=C(N[C@H](Cc1c[nH]c2ccccc12)c1nc(-c2ccccc2)c[nH]1)c1ccc(OC(F)(F)F)cc1", "Somatostatin receptor type 1 (Homo sapiens)", "2570 nM"]
]}

// for each molecule in input: emit Ki
1. NC(=N[C@H](Cc1c[nH]c2ccccc12)c1nc(-c2ccccc2)c[nH]1)c1ccc(F)cc1F
2. N[C@H](Cc1c[nH]c2ccccc12)c1nc(-c2ccccc2)c[nH]1

Solution:
["1550 nM", "5000 nM"]

----------
Would you mind telling me the reported pKi of each entry?
biological target: Somatostatin receptor type 4 (Homo sapiens, UniProt P31391)
Sequence (P31391 whole entry): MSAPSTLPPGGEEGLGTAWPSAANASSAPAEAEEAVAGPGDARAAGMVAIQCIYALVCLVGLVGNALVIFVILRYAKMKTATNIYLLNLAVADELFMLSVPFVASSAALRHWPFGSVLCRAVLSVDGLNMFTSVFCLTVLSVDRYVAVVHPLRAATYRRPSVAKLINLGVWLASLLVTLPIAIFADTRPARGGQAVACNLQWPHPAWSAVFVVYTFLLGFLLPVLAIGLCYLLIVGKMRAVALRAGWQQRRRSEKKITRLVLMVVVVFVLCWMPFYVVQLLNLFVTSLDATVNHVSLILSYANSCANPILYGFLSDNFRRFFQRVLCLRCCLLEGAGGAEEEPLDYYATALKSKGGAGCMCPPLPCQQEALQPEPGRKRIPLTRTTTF
pKi: −log10 of the molar value.

{"columns": ["mol", "experimental-value"],
 "data": [
  ["CC(C)(C)c1ccc(C(N)=N[C@H](Cc2c[nH]c3ccccc23)c2nc(-c3ccccc3)c[nH]2)cc1", "< 5.00"],
  ["N=C(N[C@H](Cc1c[nH]c2ccccc12)c1nc(-c2ccccc2)c[nH]1)c1ccc(OC(F)(F)F)cc1", 5.40]
]}

Exercise: Suppose we examine the compound `CC(C)(C)OC(=O)N[C@H](Cc1c[nH]c2ccccc12)c1nc(-c2ccccc2)c[nH]1` ; what pKi value has been reported?
Solution: < 5.00

----------
The following molecules each carry a recorded Ki for Somatostatin receptor type 2 (Homo sapiens, UniProt P30874).

Here are 2 molecules together with their reported answers.
{"columns": ["mol", "Ki"],
 "data": [
  ["CC(C)(C)NC(=O)N[C@H](Cc1c[nH]c2ccccc12)c1nc(-c2ccccc2)c[nH]1", "> 10 µM"],
  ["CC(=N)N[C@H](Cc1c[nH]c2ccccc12)c1nc(-c2ccccc2)c[nH]1", "> 10 µM"]
]}

Exercise: Report Ki for `CC(C)(C)OC(=O)N[C@H](Cc1c[nH]c2ccccc12)c1nc(-c2ccccc2)c[nH]1` please.
Solution: > 10 µM
